- System: NCI-H460
- test name: NCI tumour cell line growth inhibition, 48 h
The source made the active and inactive calls. Cut-off read from the data, not from the text of the source: active = GI50 up to about 1.1 µM and inactive = higher.
recorded metric: GI50

molecule	GI50
NS(=O)(=O)c1ccc(NNc2c3ccccc3nc3ccccc23)cc1	12.2 µM (inactive)
Cc1ccc(-c2n[nH]c(=O)n2NC(=O)c2ccccc2C(=O)O)cc1	> 100 µM (inactive)
CCCCN(C)C(=O)C1=C(C)NC(C)=C(C(=O)N(C)CCCC)C1	> 100 µM (inactive)
Cn1c(O)c(C(=O)NC2CCCCC2)c(=O)n(C)c1=S	6.1 µM (inactive)

q: What value of GI50 has been recorded for this entry: Cc1c[n+]([O-])c2ccccc2[n+]1[O-]
a: > 100 µM (inactive)

q: Reported GI50 for O=c1[nH]c(=O)n(C2OC(CO)C(O)C2O)cc1OCCCc1ccccc1 (stereo not given) : what is it?
a: > 100 µM (inactive)

q: // lookup GI50 for C/C(=N/Nc1ccc([N+](=O)[O-])cc1[N+](=O)[O-])C(CC(C(=O)NCc1ccccc1)/C(C)=N\Nc1ccc([N+](=O)[O-])cc1[N+](=O)[O-])C(=O)NCc1ccccc1 (stereo not given)
a: 5.51 µM (inactive)

q: Fill in: GI50 of O=C(CC(C(=O)c1cccs1)c1ccccc1)c1ccccc1O (stereo not given) is ___
a: 48.1 µM (inactive)

q: Which measured GI50 value corresponds to O=C1CC(c2ccccc2Cl)C2(C(=O)NC(=O)NC2=O)C(c2ccccc2Cl)C1 (stereo not given) ?
a: 98.4 µM (inactive)

q: GI50 lookup needed for CC(C)(Oc1ccc(C2C[C@H]2Cl)cc1)C(=O)O (stereo not given in full) , thanks.
a: > 100 µM (inactive)

---

- Tested on: M19-MEL
- test name: NCI tumour cell line growth inhibition, 48 h
Active and inactive are the calls of the source. No stated cut-off is given here; in the data, active = GI50 up to about 1.1 µM and inactive = higher.
Just give me one of these, please: active, inactive

q: Field: outcome | Entry: Cn1ccc(=NS(=O)(=O)c2ccccc2)cc1
a: inactive

q: Short answer needed: outcome of this test for O=C(Cn1ccnc1[N+](=O)[O-])c1ccc(F)cc1 ?
a: inactive

q: What did the test return for CC1NS(=O)(=O)N(C)C1=O (stereo unspecified) ?
a: inactive

q: Test call for this compound, please: CC(C)NC(=O)OCc1c2c(n(C)c1COC(=O)NC(C)C)-c1ccccc1CC2
a: inactive

q: Dear colleague, could you share the recorded outcome for COCN1COCN/C1=N\C#N when you have a moment?
a: inactive

---

- Test system: UACC-62
- test name: NCI tumour cell line growth inhibition, 48 h
Activity calls are given as the source filed them. Cut-off read from the data, not from the text of the source: active = GI50 up to about 1.1 µM and inactive = higher.
Pick one and only one: 1.0 (active), 0.0 (inactive)

molecule	assigned class
Oc1ccc2ccccc2c1CCc1c(O)ccc2ccccc12	0.0
CC(=O)c1c2c(cc3c1CC1(C3)Cc3cc4c(c(C(=O)O)c3C1)CCC4)CCC2 (centres undefined)	0.0
Cc1cc(C(C)(C)C)cc(CNC2CCCCC2)c1O	0.0

q: For ClC1(Cl)C2CCOC21n1cnc2ccccc21 (centres undefined) , what call appears in the results of this test?
a: 0.0

q: What did this assay record as the result for N=c1sc(N2CCOCC2)nn1CC(=O)c1ccccc1 ?
a: 0.0

q: # outcome recorded in this test, key = FC(F)(F)c1ccc2c(-c3cc[nH]c3)ccnc2c1
a: 0.0

q: What did this assay record as the result for C=C1C(=O)OC2CC1C(O)C/C(C)=C/CC/C(C)=C/C(O)CC2C (centres undefined) ?
a: 0.0

q: Which outcome was assigned to Cc1ccc(NC(=O)CSc2nnc(Cc3ccccc3)o2)cc1 in this test?
a: 0.0

q: Record request — test call for CC1=C(C(=O)c2ccccc2)C23C(=O)N(c4ccccc4)C(=O)C2=C(O)C=CC3(O)N1 (centres undefined)
a: 0.0

q: Test call for this molecule, please: O=C1N[C@@H]2C(=C[C@H](O)[C@@H](O)[C@H]2O)c2cc3c(c(O)c21)OCO3
a: 1.0

---

- System: A549
- test name: NCI tumour cell line growth inhibition, 48 h
Activity calls are given as the source filed them. No stated cut-off is given here; in the data, active = GI50 up to about 1.1 µM and inactive = higher.
recorded metric: GI50

molecule	recorded metric	data value
Nc1ccc(CCSSCCc2ccc(N)cc2)cc1	GI50	35.1 µM (inactive)
NC(=O)c1ncn(C2C=CC(CP(=O)(O)O)C2)c1N (stereo unspecified)	GI50	> 100 µM (inactive)
CC(=O)OC1C2CCC1C1C2N=NN1c1ccc([N+](=O)[O-])cc1 (stereo unspecified)	GI50	> 100 µM (inactive)
COc1ccc2nc3c(C(=O)NCCN(C)C)cccc3nc2c1	GI50	4.28 µM (inactive)
O=C(Cc1nc2ccc(C(=O)c3ccccc3)cc2nc1O)C(=O)Nc1ccc(C(F)(F)F)cc1[N+](=O)[O-]	GI50	> 100 µM (inactive)
CO/N=C1/c2sccc2[C@H](NC(=O)C(F)(F)F)[C@@H]1O	GI50	> 100 µM (inactive)

q: Which GI50 value belongs to COc1cc(Oc2c(C)c(Cl)c(OC)c(Cl)c2OC)c2c(c1Cl)COC2=O ?
a: 34.4 µM (inactive)

q: Query (molecule): CNC(=O)C1CCC(=O)N1CN(C(C)=O)c1ccccc1 (stereo unspecified) ; field requested: GI50
a: > 100 µM (inactive)

q: Please look up its GI50: CC(=O)OC[C@]1(C)CCCC2(C)C1CCC1C=C(C)[C@H]3CCC12C3 (stereo partly specified)
a: 65.2 µM (inactive)

q: # GI50 lookup, item COC(=O)C(=C\Sc1ccccc1)/C=C/C(=O)OC(C)(C)C
a: 18.3 µM (inactive)

q: // lookup GI50 for CC1NS(=O)(=O)N(C)C1=O (stereo unspecified)
a: > 100 µM (inactive)

---

- Test system: K562
- test name: NCI tumour cell line growth inhibition, 48 h
Calls of active or inactive are those of the source. Cut-off read from the data, not from the text of the source: active = GI50 up to about 1.1 µM and inactive = higher.
Please reply with one of these outcomes: active, inactive

compound	assigned class
CCSC1=N/C(=C\c2ccccc2O)C(Nc2ccc(C)cc2)=N1	inactive

q: Status in this test for CC1NS(=O)(=O)N(C)C1=O (stereo not given) ?
a: inactive

q: What classification did NC(=O)c1ncn(C2C=CC(CP(=O)(O)O)C2)c1N (stereo not given) end up with in this test?
a: inactive

q: Tell me the assay call for Cc1ccc(-c2c(C#N)c(-c3ccc([N+](=O)[O-])cc3)c(C#N)c(=O)n2NS(=O)(=O)c2ccc(C)cc2)cc1 please.
a: inactive

q: Per the assay record, what outcome was assigned to CCOC(=O)C1OC(C2(C)OC3(OC4(C=CC3O)OC(C(C)C(=O)C(C)C(O)C(C)CC(C)c3c(Cl)cc(C)c(O)c3C(=O)O)C(C)CC4C)C(C)C2OC)CC1O (stereo not given) ?
a: active

q: # outcome recorded in this test, key = CC1(C)[C@@H]2CC[C@@]1(C)[C@@H]1O[C@@H](O[C@@H](CN)c3cc(Cl)c(OCc4ccccc4)c(OCc4ccccc4)c3)C[C@H]21
a: active

q: // return assay outcome for O=C1CN=C(c2ccccc2)c2ccncc2N1
a: inactive

q: Which outcome was entered for the compound Cn1c(=O)c2c(nc3n(Cc4ccccc4)c(=O)c(NCCBr)cn23)n(C)c1=O in this test?
a: inactive

q: Which outcome did this test record for the compound C#CCOCn1cnc2c(Sc3c([N+](=O)[O-])ncn3C)ncnc21 ?
a: inactive

q: Assay outcome for CC(=O)Oc1ccc2c(c1)CC[C@@H]1C2CC[C@]2(C)C(=O)NC(=O)CC12 (stereo not given in full) : what was it?
a: inactive

---

The compounds listed here are annotated with their GI50.
- Tested on: SF-268
- test name: NCI tumour cell line growth inhibition, 48 h
The source made the active and inactive calls. No stated cut-off is given here; in the data, active = GI50 up to about 1.1 µM and inactive = higher.

Solved cases below.
compound	test target	GI50
CC(Oc1ccc(OCC2CCCCC2)cc1)C(=O)NCc1ccco1 (stereo unspecified)	SF-268	98.9 µM (inactive)
Nc1ccn(C2CCC(CO)O2)c(=O)n1 (stereo unspecified)	SF-268	> 62.8 µM (inactive)
CCc1n[nH]c(=O)n1O	SF-268	> 100 µM (inactive)

q: Which GI50 value belongs to O=C1C(Cl)C(c2cc(Br)ccc2O)N1n1cnc2ccccc2c1=O (stereo unspecified) ?
a: 2.53 µM (inactive)

q: Request the reported GI50 associated with Oc1c(/N=N\c2ccccc2)c2cccc3ccc4cccc1c4c32
a: 45.9 µM (inactive)

q: Looking for the measured GI50 of CCC1(c2ccc(N3C(=O)c4cccc5cc([N+](=O)[O-])cc(c45)C3=O)cc2)CCC(=O)NC1=O (stereo unspecified) , can you help?
a: 15.1 µM (inactive)

---

- System: UACC-62
- test name: NCI tumour cell line growth inhibition, 48 h
Activity calls are given as the source filed them. No stated cut-off is given here; in the data, active = GI50 up to about 1.1 µM and inactive = higher.
Reported GI50 values for the following molecules.

Use the examples below as a reference point.
molecule	data value
CCCCCCCCCCCCCCCC(=O)OC1C(O)C(CO)OC(OC)C1NC(=O)N(CCCl)N=O (configuration not stated)	2 µM (inactive)
Cc1ccc(O)c(C(=O)CCCC(=O)c2cc(C)ccc2O)c1	> 100 µM (inactive)
CC(C)Oc1cccc(N2C(NCc3c[nH]c4ccccc34)=Nc3ccncc3S2(=O)=O)c1	11.9 µM (inactive)
CN(c1ccccc1)c1nc(=[N+]2CCCC2)ss1.[O-][Cl+3]([O-])([O-])[O-]	> 100 µM (inactive)
CC(=O)Oc1c(-c2ccccc2)oc2ccccc12	3.13 µM (inactive)
O=[PH](O)c1cccs1	> 100 µM (inactive)

q: If you can, please state the reported GI50 value of CCOc1nc2c(N3CCCC3)nc(N3CCNCC3)nc2nc1NCc1ccccc1 .
a: 1.83 µM (inactive)

q: Which GI50 is reported for this molecule? Fc1ccc(C2SCc3nc4ccccc4n32)c(F)c1 (configuration not stated)
a: 64.7 µM (inactive)

q: Any idea what GI50 was measured for O=C(/C=C/c1ccsc1)c1ccc(Cl)s1 ?
a: > 100 µM (inactive)

q: GI50 lookup needed for CCc1n[nH]c(=O)n1CCO , thanks.
a: > 100 µM (inactive)

q: // returns reported GI50 for input COC(=NCCC1=CCCCC1)OC
a: > 100 µM (inactive)

q: Can you share its GI50? I mean this molecule: OC[C@H]1CC(c2nn[nH]n2)[C@H](O)[C@@H]1O (some centres not stated)
a: > 10 µM (inactive)

Source listed as ChEMBL document CHEMBL1201862.
